# experimental.details: Quantitative High-Throughput drug screen in 47 multiple myeloma cell lines against the NCATS MIPE library collection: SKMM1_PLB cell viability assay (AID 1919863); note: potency is the fitted concentration of half-maximal effect; nearly all actives have a fitted effect of over 35% in size
# condition.summary: SKMM1 myeloma viability, CellTiter-Glo ATP, 48 h
Inconclusive results are not listed. The source made the active and inactive calls. Calls come from the whole dose curve; as a rule, active = well fitted cell-killing curve with a large enough effect; inconclusive = small, poorly fitted or top-dose-only effect, or effect the other way; inactive = no such curve, though single readings can be large or run the other way. Non-standard residues stand in square brackets, D forms with d. Residues, ends and D or L forms follow the SMILES beside them. *: point of attachment. Nva = CCC[C@H](N)C(=O)O; Cbz = O=C(OCc1ccccc1)*
measured.quantity: Potency

compound | Potency
CCC[C@@H](C=O)NC(=O)[C@H](CC(C)C)NC(=O)[C@H](CC(C)C)NC(=O)OCc1ccccc1 (Cbz-Leu-Leu-[Nva]-aldehyde) | 1.87 µM (active)

Kindly give each listed record's Potency.
1. CC(C)Oc1ccc(C(=O)N[C@H](CNC(=O)CN(C)C)Cc2ccc(-c3cn4cccc([C@H](C)O)c4n3)cc2)cc1Cl
2. NC(=O)Nc1cc(-c2ccc(CN3CCOCC3)cc2)sc1C(N)=O
3. CC(C)C[C@H](NC(=O)[C@@H](NC(=O)c1cccc(-c2ccccc2)n1)[C@@H](C)O)B(O)O
4. OCCNC1CCCc2c1[nH]c1ccc(-c3ccccc3)cc21 (stereo not given)
5. CC(C)(O)Cn1c(NC(=O)c2ccc(-c3cn[nH]c3)s2)nc2cc(CN3CCOCC3)ccc21

["0.296 µM (active)", "18.7 µM (active)", "0.0743 µM (active)", "26.4 µM (active)", "2.96 µM (active)"]

Kindly give each listed record's Potency.
1. CCN(CC)Cc1ccc2cc(COC(=O)Nc3ccc(C(=O)NO)cc3)ccc2c1
2. C=Cc1c(C)c2cc3nc(cc4[nH]c(cc5nc(cc1[nH]2)C(C)=C5CCC(=O)O)c(CCC(=O)OC)c4C)[C@@]1(C)C3=CC=C(C(=O)OC)[C@H]1C(=O)OC
3. c1cc(N[C@@H]2CCNC2)nc(-c2cnc3ccc(-c4cn[nH]c4)cn23)c1
4. COC1=C2C[C@@H](C)C[C@H](OC)[C@@H](O)[C@@H](C)C=C(C)[C@H](OC(N)=O)[C@@H](OC)C=CC=C(C)C(=O)NC(=CC1=O)C2=O
5. Nc1ncn([C@@H]2O[C@H](CO)[C@@H](O)[C@@H]2O)c(=O)n1

1: 0.935 µM (active); 2: 0.743 µM (active); 3: 26.4 µM (active); 4: 2.09 µM (active); 5: 13.2 µM (active)

Kindly give each listed record's Potency.
1. CN1CCCN(C(=O)c2cccc(-c3ccc(C=C4C(=O)Nc5ccc(Cl)cc54)o3)c2)CC1
2. N#Cc1c(C2CCNCC2)cc(-c2c(O)cccc2OCC2CC2)nc1N
3. COc1cc(O)c2c(c1)C1OC1C[C@H](O)[C@H](O)C(=O)C=CC[C@H](C)OC2=O (stereo not given in full)

1. 14.8 µM (active)
2. 18.7 µM (active)
3. 4.69 µM (active)

Query (compound): CCCCCCCCc1ccc(CCC(N)(CO)CO)cc1 ; field requested: Potency
23.5 µM (active)

The measurements presented in this section are drawn from PubChem BioAssay (NCATS).
